Could you please report measured Log k' for the items listed next?
One number for each entry.

Reference set (6 entries):
                                   compound  test_value
0  CN(C)CCCN1c2ccccc2Sc2ccc(Cl)cc21 [CHLORPROMAZINE]       1.751
1  CN1CCC(=C2c3ccccc3C=Cc3ccccc32)CC1 [CYPROHEPTADINE]       1.527
2  CC(CN1c2ccccc2Sc2ccccc21)N(C)C (configuration not stated) [PROMETHAZINE]       1.271
3  CN(C)CCC=C1c2ccccc2CCc2ccccc21 [AMITRIPTYLINE]       1.279
4  CN(C)CCCN1c2ccccc2Sc2ccccc21 [PROMAZINE]       1.117
5  CN(C)CCCN1c2ccccc2CCc2ccccc21 [IMIPRAMINE]       0.934

Request: Can you look up the measured Log k' of CN(C)CCC=C1c2ccccc2COc2ccccc21 [DOXEPIN] for me?
Result: 0.778
